test: Cell cytotoxicity assay HEK-293T (CellTiter-Glo, 72 hours); assay type: cell-based; conditions: human, HEK-293T cells, Table 4; methyl-desmethyl analog pairs; read-out: Cytotox K-293 EC50
OBSERVABLE: EC50 at 72 h (nM)
Record the value in nM, omitting the unit from your answer.

Examples from the recorded data:
CCS(=O)(=O)c1ccc(OC(F)F)c(-c2nn(C)cc2NC(=O)c2cnn3cccnc23)c1: 6050
O=C(Nc1c[nH]nc1-c1cc(S(=O)(=O)C(F)F)ccc1OC(F)F)c1cnn2cccnc12 [reference compound]: 38

Look up EC50 at 72 h: CS(=O)(=O)c1ccc(OC(F)F)c(-c2n[nH]cc2NC(=O)c2cnn3cccnc23)c1 [Example 4 in WO201708 9390, reference compound]
2100

Look up EC50 at 72 h: Cn1cc(NC(=O)c2cnn3cccnc23)c(-c2cc(S(C)(=O)=O)ccc2OC(F)F)n1
7300

Look up EC50 at 72 h: Cn1cc(NC(=O)c2cnn3cccnc23)c(-c2cc(S(=O)(=O)C(F)F)ccc2OC(F)F)n1
2200

Look up EC50 at 72 h: CCS(=O)(=O)c1ccc(OC(F)F)c(-c2n[nH]cc2NC(=O)c2cnn3cccnc23)c1 [Example. 192 in WO201708 9390, reference compound]
437

---

molecular target: recombinant human JAK1 kinase domain protein (Residues 854-1154) (Homo sapiens, UniProt P23458); construct: human JAK1 kinase domain protein (Residues 854-1154); test: JAK1 biochemical assay (microfluidic mobility shift, peptide phosphorylation); conditions: 25 μM ATP, 1 nM total JAK1; read-out: Enzyme JAK1 Ki
Sequence (P23458 854-1154): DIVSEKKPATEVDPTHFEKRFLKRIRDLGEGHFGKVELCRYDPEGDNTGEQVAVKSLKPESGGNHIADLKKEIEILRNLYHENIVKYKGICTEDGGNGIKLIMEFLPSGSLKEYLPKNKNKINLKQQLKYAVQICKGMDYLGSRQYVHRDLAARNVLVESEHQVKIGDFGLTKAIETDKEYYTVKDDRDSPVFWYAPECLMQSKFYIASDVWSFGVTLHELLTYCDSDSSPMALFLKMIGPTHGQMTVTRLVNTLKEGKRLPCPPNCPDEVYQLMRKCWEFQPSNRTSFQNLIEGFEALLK
OBSERVABLE: Ki

Look up Ki: Cn1cc(NC(=O)c2cnn3cccnc23)c(-c2cc(S(=O)(=O)CCO)ccc2OC(F)F)n1
0.43 nM

Look up Ki: CN1CCC(S(=O)(=O)c2ccc(OC(F)F)c(-c3nn(C)cc3NC(=O)c3cnn4cccnc34)c2)C1 (single isomer, unassigned) [Example 19]
4 nM

Look up Ki: Cn1cc(NC(=O)c2cnn3cccnc23)c(-c2cc(S(=O)(=O)C3CCC3)ccc2OC(F)F)n1
0.5 nM

Look up Ki: COc1cccc(S(=O)(=O)c2ccc(OC(F)F)c(-c3nn(C)cc3NC(=O)c3cnn4cccnc34)c2)c1
0.24 nM

---

target: Recombinant human JAK2 kinase domain protein (Residues 812-1132) (Homo sapiens, UniProt O60674); test: JAK2 biochemical assay (microfluidic mobility shift, peptide phosphorylation); conditions: Enzyme JAK2 Ki (nM), 25 μM ATP, 0.2 nM total JAK2
Sequence (O60674 812-1132): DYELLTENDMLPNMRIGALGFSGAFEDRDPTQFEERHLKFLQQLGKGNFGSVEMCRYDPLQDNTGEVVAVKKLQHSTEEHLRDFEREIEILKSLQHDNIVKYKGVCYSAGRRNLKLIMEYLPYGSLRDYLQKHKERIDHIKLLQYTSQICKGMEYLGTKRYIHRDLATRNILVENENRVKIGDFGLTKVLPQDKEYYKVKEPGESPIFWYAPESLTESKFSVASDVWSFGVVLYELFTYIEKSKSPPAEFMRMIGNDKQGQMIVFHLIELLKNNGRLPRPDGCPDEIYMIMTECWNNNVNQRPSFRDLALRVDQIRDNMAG
Doc: threshold 0.2 nM (exclusive). Items with Ki beneath it return yes (1); others return no (0).

Use these answered entries as a reference point.
Cn1cc(NC(=O)c2cnn3cccnc23)c(-c2cc(S(=O)(=O)c3cccc(O)c3)ccc2OC(F)F)n1: yes (1)
CN(C)CCn1cc(S(=O)(=O)c2ccc(OC(F)F)c(-c3nn(C)cc3NC(=O)c3cnn4cccnc34)c2)cn1: no (0)
Cn1cc(NC(=O)c2cnn3cccnc23)c(-c2cc(S(N)(=O)=O)ccc2OC(F)F)n1: no (0)
Cn1cc(NC(=O)c2cnn3cccnc23)c(-c2cc(S(=O)(=O)C3CCNC3)ccc2OC(F)F)n1 (centres unmarked): no (0)
CN1CCC[C@H]1Cn1cc(NC(=O)c2cnn3cccnc23)c(-c2cc(S(C)(=O)=O)ccc2OC(F)F)n1: no (0)
CC(CO)S(=O)(=O)c1ccc(OC(F)F)c(-c2nn(C)cc2NC(=O)c2cnn3cccnc23)c1 (single isomer, unassigned) [Example 24]: yes (1)
CNCCn1cc(S(=O)(=O)c2ccc(OC(F)F)c(-c3nn(C)cc3NC(=O)c3cnn4cccnc34)c2)cn1: no (0)
CC(C)OC(=O)n1cc(NC(=O)c2cnn3cccnc23)c(-c2cc(S(C)(=O)=O)ccc2OC(F)F)n1: no (0)

State whether 0.2 nM exceeds Ki recorded for N#CCn1cc(NC(=O)c2cnn3cccnc23)c(-c2cc(S(=O)(=O)C3CC3)ccc2OC(F)F)n1 .
no (0)

State whether 0.2 nM exceeds Ki recorded for Cn1cc(NC(=O)c2cnn3cccnc23)c(-c2cc(S(=O)(=O)c3ccccc3)ccc2OC(F)F)n1 .
yes (1)

State whether 0.2 nM exceeds Ki recorded for Cn1cc(S(=O)(=O)c2ccc(OC(F)F)c(-c3nn(C)cc3NC(=O)c3cnn4cccnc34)c2)cn1 .
yes (1)

State whether 0.2 nM exceeds Ki recorded for CC(=O)N1CC(S(=O)(=O)c2ccc(OC(F)F)c(-c3nn(C)cc3NC(=O)c3cnn4cccnc34)c2)C1 .
no (0)

State whether 0.2 nM exceeds Ki recorded for CN1CCCC1CCn1cc(S(=O)(=O)c2ccc(OC(F)F)c(-c3nn(C)cc3NC(=O)c3cnn4cccnc34)c2)cn1 (stereo in doubt) [Example 57] .
no (0)
